tested on: CCRF-CEM leukemia; test: NCI tumour cell line growth inhibition, 48 h; in the data active = GI50 below about 0.43 µM; inactive = the rest
Classes used: active, inactive

# COMPOUND, CLASS
records = [
    ("NC(N)=N/N=C/c1ccc(Br)cc1", "inactive"),
    ("CN1CCN(Cc2ccc(NC(=O)c3cncc(C#Cc4ncc5ccccn45)c3)cc2C(F)(F)F)CC1", "inactive"),
    ("C[C@H](c1ccc(Cl)cc1[N+](=O)[O-])N1C(=O)c2cc(I)ccc2NC(=O)[C@H]1c1ccc(Cl)cc1", "inactive"),
    ("C=C1C(OCCO)OC2O[C@]3(C)CCC4[C@H](C)CCC1C24OO3 (stereo not given in full)", "inactive"),
    ("C[C@H](CCCOS(C)(=O)=O)[C@H]1CC[C@H]2[C@@H]3CC[C@@H]4C[C@H](OS(C)(=O)=O)CC[C@]4(C)[C@H]3CC[C@]12C", "inactive"),
    ("CN(C)c1ccc(/C=c2\\sc3nnc(Cc4ccccc4)n3c2=O)cc1", "inactive"),
    ("CC1SC(c2cccc(Cl)c2)N(NC(=O)C(O)c2ccccc2)C1=O (stereo not given)", "inactive"),
    ("NS(=O)(=O)c1ccc(N=Nc2c(=O)[nH]c3ccc4[nH]cccc4c23)cc1", "active"),
    ("CCN1C(=O)N(CC)C2C1NN=c1s/c(=C\\c3cnc(C)n3C)c(=O)n12 (stereo not given)", "inactive"),
    ("O=C1C=C(OCC=C(Cl)Cl)C(=O)c2ccccc21", "inactive"),
]

###

system: SK-MEL-2 melanoma; experiment: NCI tumour cell line growth inhibition, 48 h
As shown below, each of these compounds has a reported TGI value.

# COMPOUND, TGI
records = [
    ("CSc1nc(Cl)c2c(n1)Sc1nc3ccccc3n1N=C2", "> 100 µM"),
    ("C=C1CC(CC(=O)C(C)CC2CC(=C)C(=O)O2)OC1=O (stereo not given)", "25.3 µM"),
    ("COc1cc(C2S/C(=C/c3ccccc3)C(=O)N2c2ccccn2)cc(OC)c1OC (stereo not given)", "> 71.3 µM"),
    ("Cc1ccc(S(=O)(=O)N/N=C2\\CC3C4CCC3C2C4)cc1 (stereo not given)", "> 100 µM"),
    ("N#CC1([N+](=O)[O-])C=C1c1ccccc1 (stereo not given)", "> 100 µM"),
    ("CCO/N=C(/CC)c1ccc(Br)s1", "> 100 µM"),
    ("CC(C)=C=CC(C)(C)NS(=O)(=O)NC(C)(C)C=C=C(C)C", "> 100 µM"),
    ("O=C(OCc1ccccc1)c1ccccc1-c1c2ccc(=O)cc-2oc2cc(OCc3ccccc3)ccc12", "46.7 µM"),
    ("NC(C(=O)O)c1ccc(C(=O)O)cc1 (stereo not given)", "> 100 µM"),
    ("COc1ccc(OC)c(/C=C/C(=O)c2ccc3cc(OC)ccc3c2)c1", "> 50 µM"),
]

###

system: HL-60(TB) leukemia; test: NCI tumour cell line growth inhibition, 48 h
As shown below, each of these molecules has a reported TGI value.

# MOLECULE, ASSAYED TARGET, TGI
rows = [
    ("CC(=O)OC1(C#N)CC2OC1C1NC21 (centres undefined)", "HL-60(TB) leukemia", "> 100 µM"),
    ("NC(=O)N/N=C/c1ccccc1O", "HL-60(TB) leukemia", "> 100 µM"),
    ("COC(=O)/C=C/N1CC1", "HL-60(TB) leukemia", "> 10 µM"),
    ("O=C1CC2OCC=C3CN4CCC56c7ccccc7N1C5C2C3CC46 (centres undefined) (tested in a mixture with another compound)", "HL-60(TB) leukemia", "0.216 µg/mL"),
    ("CN1C(=O)C(O)C[C@@H]1c1ccc(F)cc1 (some centres undefined)", "HL-60(TB) leukemia", "> 100 µM"),
    ("CCOC(=O)C1C(=O)c2cccc(OC)c2C2COC(=O)N12 (centres undefined)", "HL-60(TB) leukemia", "> 100 µM"),
    ("C[Si](C)(C)C#CCOC=C1CC1", "HL-60(TB) leukemia", "> 100 µM"),
    ("CCCCCCC(=O)CC(=O)C(=O)Nc1ccccc1C", "HL-60(TB) leukemia", "> 100 µM"),
    ("COc1ccc(-c2c(C#N)cnc(N)c2-c2nc3cc(C)c(C)cc3[nH]2)cc1", "HL-60(TB) leukemia", "> 100 µM"),
    ("COc1cc(N(CCC#N)CCC#N)ccc1/C(N=Nc1cccc(C)c1)=N\\NC(=O)c1ccc(C)cc1", "HL-60(TB) leukemia", "> 100 µM"),
    ("N=c1oc2ccc(Cl)cc2cc1C(=O)NC1CCCCC1", "HL-60(TB) leukemia", "> 100 µM"),
    ("NC1=CN(Cc2ccccc2)C2=N/C(=C\\c3ccco3)C(=O)N12", "HL-60(TB) leukemia", "> 100 µM"),
    ("Cc1ccc(C(=O)N/N=C(\\N=Nc2ccccc2)c2ccc(N(CCC#N)CCC#N)cc2C)cc1", "HL-60(TB) leukemia", "> 100 µM"),
    ("NNC(=O)N/N=C1/C(=O)N(c2ccc(Cl)c(Cl)c2)C(=O)C(=O)C1c1nc2ccccc2o1 (centres undefined)", "HL-60(TB) leukemia", "> 100 µM"),
    ("Cc1ccc(NC(=O)CC2C(=O)Nc3ccccc3S2(=O)=O)cc1C (centres undefined)", "HL-60(TB) leukemia", "> 100 µM"),
    ("CCOC(=O)/C=C1\\C[C@H](NC(=O)OCc2ccccc2)C(=O)N1CC(=O)OCC", "HL-60(TB) leukemia", "> 100 µM"),
    ("CC(=O)Oc1cc2c(n(C)c1=O)CCC2", "HL-60(TB) leukemia", "> 100 µM"),
    ("O=C(CSCC(=O)N/N=C/c1ccncc1)N/N=C/c1ccncc1", "HL-60(TB) leukemia", "> 100 µM"),
    ("Cc1cccc(/C=C2\\CCCCCC2=O)c1", "HL-60(TB) leukemia", "> 100 µM"),
    ("Cc1ccc(S(=O)(=O)NC(=O)NCC(=O)O)cc1", "HL-60(TB) leukemia", "> 100 µM"),
    ("CC(C)(C)c1cc2c(O)c(c1)COCc1cc(C(C)(C)C)cc(c1O)COCc1cc(C(C)(C)C)cc(c1O)COC2", "HL-60(TB) leukemia", "> 100 µM"),
    ("S=c1sscc1N1CCSc2ssc(=S)c21", "HL-60(TB) leukemia", "> 100 µM"),
    ("COc1ccc(S(=O)(=O)N/N=C/CN2C(=O)c3ccccc3C2=O)cc1", "HL-60(TB) leukemia", "> 100 µM"),
    ("COC(=O)C(C(=O)C(=O)Nc1ccc(N)cc1[N+](=O)[O-])c1nc2ccc(Cl)cc2[nH]c1=O (centres undefined)", "HL-60(TB) leukemia", "> 100 µM"),
]
